# Lookup of reported Kb keyed by entry
# TARGET DESC: Guinea Pig Ileum (Cavia porcellus, UniProt O35505)
# Construct: The longitudinal smooth muscle is carefully separated from the underlying circular muscle layer; from tissue; host or cells: guinea pig ileum (terminal 10 cm discarded), isolated longitudinal smooth muscle
# Sequence (O35505 whole entry): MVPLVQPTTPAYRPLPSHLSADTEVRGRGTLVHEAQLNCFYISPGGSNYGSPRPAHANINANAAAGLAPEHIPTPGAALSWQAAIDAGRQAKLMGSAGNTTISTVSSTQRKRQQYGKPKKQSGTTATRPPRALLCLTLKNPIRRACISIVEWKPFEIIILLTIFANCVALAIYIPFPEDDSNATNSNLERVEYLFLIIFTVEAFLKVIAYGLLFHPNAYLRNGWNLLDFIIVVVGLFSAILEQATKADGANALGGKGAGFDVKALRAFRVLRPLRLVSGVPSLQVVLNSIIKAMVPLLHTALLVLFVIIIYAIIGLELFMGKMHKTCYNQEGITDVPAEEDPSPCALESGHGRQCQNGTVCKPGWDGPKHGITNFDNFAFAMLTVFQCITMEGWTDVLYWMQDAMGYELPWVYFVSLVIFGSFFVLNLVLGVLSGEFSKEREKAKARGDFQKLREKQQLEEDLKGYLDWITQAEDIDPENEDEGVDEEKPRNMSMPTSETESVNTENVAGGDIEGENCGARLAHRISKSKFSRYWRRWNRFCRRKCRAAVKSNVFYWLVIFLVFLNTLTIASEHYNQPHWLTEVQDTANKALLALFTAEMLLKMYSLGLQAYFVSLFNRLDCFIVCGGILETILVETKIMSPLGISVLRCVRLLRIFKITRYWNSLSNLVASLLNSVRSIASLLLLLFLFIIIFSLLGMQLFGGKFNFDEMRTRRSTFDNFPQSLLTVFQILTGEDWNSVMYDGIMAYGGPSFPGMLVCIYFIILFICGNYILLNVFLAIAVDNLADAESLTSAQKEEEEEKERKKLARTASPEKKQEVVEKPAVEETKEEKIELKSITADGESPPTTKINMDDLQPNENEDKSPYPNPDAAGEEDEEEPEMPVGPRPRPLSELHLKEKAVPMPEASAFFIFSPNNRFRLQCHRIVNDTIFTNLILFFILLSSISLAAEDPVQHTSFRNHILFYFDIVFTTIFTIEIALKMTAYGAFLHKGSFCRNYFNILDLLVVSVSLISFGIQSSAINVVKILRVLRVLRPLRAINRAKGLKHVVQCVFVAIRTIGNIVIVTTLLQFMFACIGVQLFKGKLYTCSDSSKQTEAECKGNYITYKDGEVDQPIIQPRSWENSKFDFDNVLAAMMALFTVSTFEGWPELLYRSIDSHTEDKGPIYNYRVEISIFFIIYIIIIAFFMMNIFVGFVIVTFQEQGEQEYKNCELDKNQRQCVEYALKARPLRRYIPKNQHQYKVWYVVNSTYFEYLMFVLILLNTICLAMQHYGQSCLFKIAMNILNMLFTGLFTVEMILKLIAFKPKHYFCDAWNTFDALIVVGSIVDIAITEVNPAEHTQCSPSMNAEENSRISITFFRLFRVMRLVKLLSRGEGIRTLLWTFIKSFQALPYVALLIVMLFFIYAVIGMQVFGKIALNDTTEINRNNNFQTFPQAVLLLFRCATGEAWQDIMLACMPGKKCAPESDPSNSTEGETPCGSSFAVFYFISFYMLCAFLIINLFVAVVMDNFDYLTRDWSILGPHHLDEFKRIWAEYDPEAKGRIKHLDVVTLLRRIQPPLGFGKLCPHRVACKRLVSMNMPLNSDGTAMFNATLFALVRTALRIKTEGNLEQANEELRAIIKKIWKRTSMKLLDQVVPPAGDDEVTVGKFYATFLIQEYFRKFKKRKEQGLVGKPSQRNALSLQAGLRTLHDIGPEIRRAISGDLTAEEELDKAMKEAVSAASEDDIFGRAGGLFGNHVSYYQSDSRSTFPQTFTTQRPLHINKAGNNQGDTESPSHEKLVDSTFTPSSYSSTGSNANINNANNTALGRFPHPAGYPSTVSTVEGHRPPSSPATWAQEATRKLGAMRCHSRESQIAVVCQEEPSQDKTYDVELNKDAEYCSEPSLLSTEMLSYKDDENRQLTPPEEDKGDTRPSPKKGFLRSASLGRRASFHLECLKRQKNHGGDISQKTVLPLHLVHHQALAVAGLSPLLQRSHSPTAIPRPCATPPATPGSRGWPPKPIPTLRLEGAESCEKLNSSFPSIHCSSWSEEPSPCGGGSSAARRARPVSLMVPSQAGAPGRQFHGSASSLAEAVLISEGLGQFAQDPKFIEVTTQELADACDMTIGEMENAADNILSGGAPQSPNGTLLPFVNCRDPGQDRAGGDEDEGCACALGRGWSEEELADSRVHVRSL
# ASSAY TEXT: Calcium Channel Antagonist Activity in Guinea Pig Isolated Ileal Smooth Muscle (inhibition of Ca++ evoked contractions)
# TEST SETTINGS: concentration producing a two-fold rightward shift in the control Ca++ curve; KCl-depolarized (80 mM) longitudinal smooth muscle
Structures can show the parent of a compound that is named as a salt.
VALUE KIND: Kb (nM)

[[record]]
molecule = "COC(=O)C1=C(C)NC(C)=C(C(=O)O[C@@H]2CN3CCC2CC3)[C@H]1c1cccc([N+](=O)[O-])c1 [(S,S)-I]"
value_kind = "Kb"
val = 1620

[[record]]
molecule = "COC(=O)C1=C(C)NC(C)=C(C(=O)O[C@H]2CN3CCC2CC3)[C@@H]1c1cccc([N+](=O)[O-])c1 [(R,R)-I]"
value_kind = "Kb"
val = 34

[[record]]
molecule = "COC(=O)C1=C(C)NC(C)=C(C(=O)O[C@H]2CN3CCC2CC3)[C@H]1c1cccc([N+](=O)[O-])c1 [(S,R)-I, hydrochloride]"
value_kind = "Kb"
val = 3160

[[record]]
molecule = "COC(=O)C1=C(C)NC(C)=C(C(=O)O[C@H]2CN3CCC2CC3)[C@H]1c1cccc([N+](=O)[O-])c1 [(R,S)-I]"
value_kind = "Kb"
val = 174

